- Tested on: MCF-7 (HER2 negative to normal)
- procedure.summary: Cytotoxicity in vitro (cell proliferation inhibition, SRB dye)
- Type: cell-based, human
- condition.summary: MCF7 breast cancer cells, 168 hr treatment, read-out: CC50 (nM) MCF7 168 hr
Where a SMILES comes first, the peptide text is derived from it. [ ]: non-standard residue; d: D form. Dolaproine = CO[C@@H]([C@@H]1CCCN1)[C@@H](C)C(=O)O; Dil = CC[C@H](C)[C@H](NC)[C@@H](CC(=O)O)OC; NMeV = CN[C@H](C(=O)O)C(C)C
property.label: CC50
Please state the number and follow it with the unit.

Looking up CC[C@H](C)[C@@H]([C@@H](CC(=O)N1CCC[C@H]1[C@H](OC)[C@@H](C)C(=O)N[C@@H](Cc1ccccc1)C(=O)OC)OC)N(C)C(=O)[C@@H](NC(=O)[C@@H](NC)C(C)C)C(C)C [MMAF-OMe] (H-[NMeV]V[Dil][Dolaproine]F-OMe) , I found its CC50 recorded as 0.19 nM

###

- Test system: JIMT-1 (HER2 positive)
- procedure.summary: Cytotoxicity in vitro (cell proliferation inhibition, SRB dye)
- Assay type: cell-based, human
- condition.summary: JIMT-1 breast cancer cells, 72 hr treatment, read-out: CC50 (nM) JIMT-1 72 hr
Where a SMILES comes first, the peptide text is derived from it. [ ]: non-standard residue; d: D form. Dolaproine = CO[C@@H]([C@@H]1CCCN1)[C@@H](C)C(=O)O; Dil = CC[C@H](C)[C@H](NC)[C@@H](CC(=O)O)OC; NMeV = CN[C@H](C(=O)O)C(C)C
property.label: CC50 (nM)
Just the number in nM, nothing appended.

// assay JIMT-1 (HER2 positive), entry CC[C@H](C)[C@@H]([C@@H](CC(=O)N1CCC[C@H]1[C@H](OC)[C@@H](C)C(=O)N[C@@H](Cc1ccccc1)C(=O)OC)OC)N(C)C(=O)[C@@H](NC(=O)[C@@H](NC)C(C)C)C(C)C [MMAF-OMe] (H-[NMeV]V[Dil][Dolaproine]F-OMe) , CC50 value = 0.14

###

- Tested on: SK-BR3 (HER2 positive)
- procedure.summary: Cytotoxicity in vitro (cell proliferation inhibition, SRB dye)
- Format: cell-based, human
- condition.summary: SK-BR3 breast cancer cells, 72 hr treatment, read-out: CC50 (nM) SK-BR3 72 hr
- Procedure: The cell proliferation inhibitory activity of the drug and ADCs presented in the following Table 2 on cancer cell lines was measured. As the cancer cell lines, commercially available human breast cancer cell lines MCF-7 (HER2 negative to normal), SK-BR3 (HER2 positive), and JIMT-1 (HER2 positive) were used. MMAF-OMe was used as the drug and the ADCs in Table 1 were used as the ADC. […] After 72/168 hours, the number of living cells was quantified using SRB (Sulforhodamine B) dye.
Where a SMILES comes first, the peptide text is derived from it. [ ]: non-standard residue; d: D form. Dolaproine = CO[C@@H]([C@@H]1CCCN1)[C@@H](C)C(=O)O; Dil = CC[C@H](C)[C@H](NC)[C@@H](CC(=O)O)OC; NMeV = CN[C@H](C(=O)O)C(C)C
property.label: CC50 (nM)
Just the number in nM, nothing appended.

Looking up CC[C@H](C)[C@@H]([C@@H](CC(=O)N1CCC[C@H]1[C@H](OC)[C@@H](C)C(=O)N[C@@H](Cc1ccccc1)C(=O)OC)OC)N(C)C(=O)[C@@H](NC(=O)[C@@H](NC)C(C)C)C(C)C [MMAF-OMe] (H-[NMeV]V[Dil][Dolaproine]F-OMe) , I found its CC50 recorded as 0.14

Origin of measurements: patent US12398124B2
